# measured on: CDK2 (human)
# test summary: Cell-Based Assay
# settings: hct 116
measurement label: IC50

Here is how some molecules turned out for IC50.
Entry under test: `Cc1[nH]nc2c1N=C(c1ccccc1F)c1cc(C#N)ccc1N2` . Its IC50 was 1.1 to 9.99 µM

Entry under test: `O=C(NCCO)c1ccc2c(c1)C(c1ccccc1F)=Nc1c[nH]nc1N2` . Its IC50 was 10 to 30 µM

Entry under test: `COc1cc(O)ccc1-c1[nH]nc2c1N=C(c1ccccc1Cl)c1cc([N+](=O)[O-])ccc1N2` . Its IC50 was 10 to 30 µM

Entry under test: `O=[N+]([O-])c1ccc2c(c1)C(c1ccccc1Cl)=Nc1c(n[nH]c1CCc1ccccc1)N2` . Its IC50 was 10 to 30 µM

***
Entry under test: `CS(=O)(=O)c1ccc2c(c1)C(c1ccccc1)=Nc1c[nH]nc1N2` . Its IC50 was 10 to 30 µM

Entry source: the Kinase Knowledgebase extract (Sharma et al. 2016)
